Tested on: MtvA;MtvT (Pseudomonas aeruginosa PAD8 (plasmid pPAD8);Pseudomonas aeruginosa PAD8 (plasmid pPAD8)), ORF:f8ca6192+ORF:03226125
Test: EMSA
Conditions: pH 8.0, 25 min at room temperature
endpoint_name: binding

1) GCCGTCTCCGCGCGGGAGGAAAAGGCCACAGCGATGTGGCTTTTTTCTTAAAAGAAAAGTCTCTCAGTGACAAAAGCGATGCATAGCCCGGTGCTAGCATGCGCTGAGCTTTAGGAGGCGCCCCC (double strand) [P-exsC]: no binding
2) TTACTCGAGTGATGGCGATCGCCGCCGACGATGCTTCGTTTGATCACAGCTGCGTGGTCAACTTCAAATCGGCCGCCTGAGGGCGGCCCTACCCATAGATCCTGATTCCTCAACAAGAAAAAGCGACGTGTCCATTCGTTGACACTAAAGGTATTTTTGCGTATTTTTCGACATTATCATCTAATGAAAGTCGTTGGGGTTTGTTCGGTGGATCCATA (double strand) [P-icmL]: binds
3) GTACGATCATCTTCACTTCCTCCAAATAGGAAGCTGAAGAATTTATGCAAATTTCATAATTTTATAACTAGCAAATGAGATAGATTTCGGTGAACCCGGACCCTTGCTAGGCTCGAAGAAACGTCCGAAAAGATCAGAGCA (double strand) [P-lasI]: no binding
4) CGGAAAACCTTAGACCCACTGAAGACCCGGCGTTCGCCGGGTTTTTTGTGTCTGCTCTTGTAAGCATTAACTTACACGGCGTGTGAGCCTAAGTAGATAAATGCCCGGGAGGTTTGCCAAAAACGCTCGGTGAATTTAAGTAACTTATTGAAATTAAAGGAATATATTTTTCTAAAATGGCTGCCGAAGAAGCTTCGCTGGGTTTTCTGGCAGGTTGCGGGAGCACTGGGAATCGCTAATATCACTCCTG (double strand) [P-rsmZ]: binds

---

Test system: MtvA;MtvT (Pseudomonas aeruginosa PAD8 (plasmid pPAD8);Pseudomonas aeruginosa PAD8 (plasmid pPAD8)), ORF:f8ca6192+ORF:03226125
Test: EMSA
Conditions: pH 8.0, 25 min at room temperature
endpoint_name: binding

1. GCTGGGAAGGCTCGCGATGATGAGGGGACTGGCCACTGTAGCGGGCCCGGCGCAGATCATCTTGACGCACGGCAAGCTCCCGGCGGCTGGGTGTTGCCGTCGGTCCGGCGAGCGGAACTATTACAGCGTGTAAGCCAAGGCTTACAAACGGCGGTGGTTTTGGCTGCTTTCTCCCCCTCGCAGAGATGCGTAATCTTCAAACCGTCAGGACATTGCGCAGG (double strand) [P-rsmY]: binds
2. TTACTCGAGAAGTTTGGAATAACCAGAGATATGCTCGTCAACAACGAATGTTTGAACATATTTATCGGAACTTATTACATTCAGCGTAGCGTGCTGGGGAGTGATGATTTTTGGAAGGGCGTTGGTAATTACCACTCTCGCACGCCCGACAAAAACTACCGGTACAAACATCGTGTGTGGAACAGTCTCAAAGAAGTCCGGGGGCAGCAGGATCCATA (double strand) [P-icmP]: binds
3. TATGGATCCCGTATCTGCTCGGTTGGTTGATGGACAAAGCGCTTATCAAAAGGAAAACAACGCTTTGGCGCACGACTATACAGCAACGAAAGTCGAACGATAAGGCAATGATAGTCAGAAGTGACCCACCACTCAACACCAACCCACGCCCATATAGGTCTACGGTGACCTAAAACCTCGCTCGCCCTCCAAATAGGTCACCTGTGACCCTCGAGTAA (double strand) [P-dotD]: binds

Origin of the recorded values: paper PMC11826091
